The origin of these recorded values is patent US9840495B2.

biological target: human vasopressin V1a receptor (Homo sapiens); assay: Vasopressin V1a receptor binding assay (125I-AVP displacement, CHO-K1 membranes); conditions: selectivity quotient, human V1a vs human V1b receptor binding
Measurement Kind: Ki(h-V1a)/Ki(h-V1b)

Some compounds with recorded Ki(h-V1a)/Ki(h-V1b):
{"columns": ["Compound", "Measurement Kind", "Value Reported"],
 "data": [
  ["COc1ccc(S(=O)(=O)N2C(=O)[C@@](NC(=O)N3CC(N4CCC(N(C)C5COC5)CC4)C3)(c3cccnc3OC)c3cc(C#N)ccc32)cc1 [Example 35]", "Ki(h-V1a)/Ki(h-V1b)", "++ (25-75)"],
  ["CCOc1ncccc1[C@]1(NC(=O)N2CC(N3CCC(N4CCOCC4)CC3)C2)C(=O)N(S(=O)(=O)c2ccc(OC)cc2F)c2ccc(C#N)cc21 [Example 27]", "Ki(h-V1a)/Ki(h-V1b)", "+++ (>75)"],
  ["CCOc1ncccc1[C@]1(NC(=O)N2CC(N3CCC(N4CCOCC4)CC3)C2)C(=O)N(S(=O)(=O)c2ccccc2OC)c2ccc(C#N)cc21 [Example 37]", "Ki(h-V1a)/Ki(h-V1b)", "+++ (>75)"],
  ["COc1ccccc1S(=O)(=O)N1C(=O)[C@@](NC(=O)N2CC(N3CCC(N(C)C4COC4)CC3)C2)(c2cccnc2OC)c2cc(C#N)ccc21 [Example 29]", "Ki(h-V1a)/Ki(h-V1b)", "+ (10-<25)"],
  ["COc1cc(F)ccc1S(=O)(=O)N1C(=O)[C@@](NC(=O)N2CC(N3CCC(N(C)C4COC4)CC3)C2)(c2cccnc2OC)c2cc(C#N)ccc21 [Example 30]", "Ki(h-V1a)/Ki(h-V1b)", "+ (10-<25)"]
]}

Please examine the following record next.
q: Please report the recorded Ki(h-V1a)/Ki(h-V1b) for CCN(C1CCN(C2CN(C(=O)N[C@@]3(c4cccnc4OC)C(=O)N(S(=O)(=O)c4ccc(OC)cc4OC)c4ccc(C#N)cc43)C2)CC1)C1COC1 [Example 23] .
a: ++ (25-75)

---

target: human vasopressin V1a receptor (Homo sapiens, UniProt P37288); test: Vasopressin V1a receptor binding assay (125I-AVP displacement, CHO-K1 membranes); details: selectivity quotient, human V1a vs human V1b receptor binding
Sequence (P37288 whole entry): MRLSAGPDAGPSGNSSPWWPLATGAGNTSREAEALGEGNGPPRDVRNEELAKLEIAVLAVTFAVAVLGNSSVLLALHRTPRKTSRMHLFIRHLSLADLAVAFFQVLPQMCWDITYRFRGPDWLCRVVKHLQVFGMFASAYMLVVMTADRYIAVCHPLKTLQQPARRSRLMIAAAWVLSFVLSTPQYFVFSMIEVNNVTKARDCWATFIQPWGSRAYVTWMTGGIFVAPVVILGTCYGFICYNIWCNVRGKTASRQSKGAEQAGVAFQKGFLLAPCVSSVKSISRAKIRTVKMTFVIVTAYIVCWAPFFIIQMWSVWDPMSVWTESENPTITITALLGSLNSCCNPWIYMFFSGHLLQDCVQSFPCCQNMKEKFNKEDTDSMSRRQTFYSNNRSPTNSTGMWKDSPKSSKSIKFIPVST
Measurement Kind: Ki(h-V1a)/Ki(h-V1b)

Some compounds with recorded Ki(h-V1a)/Ki(h-V1b):
{"columns": ["Smiles Representation", "Measurement Kind", "Value Reported"],
 "data": [
  ["CCOc1ncccc1[C@]1(NC(=O)N2CC(N3CCC(N4CC5(COC5)C4)CC3)C2)C(=O)N(S(=O)(=O)c2ccc(OC)cc2OC)c2ccc(C#N)cc21", "Ki(h-V1a)/Ki(h-V1b)", "+++ (>75)"],
  ["CCOc1ncccc1[C@]1(NC(=O)N2CC(N3CCC(N4CCC(F)(F)CC4)CC3)C2)C(=O)N(S(=O)(=O)c2ccc(OC)cc2OC)c2ccc(C#N)cc21", "Ki(h-V1a)/Ki(h-V1b)", "+++ (>75)"],
  ["COc1ccc(S(=O)(=O)N2C(=O)[C@@](NC(=O)N3CC(N4CCC(N(C)C5COC5)CC4)C3)(c3cccnc3OC)c3cc(C#N)ccc32)c(F)c1", "Ki(h-V1a)/Ki(h-V1b)", "+ (10-<25)"],
  ["CCOc1ncccc1[C@]1(NC(=O)N2CC(N3CCC(N4CC(O)C4)CC3)C2)C(=O)N(S(=O)(=O)c2ccc(OC)cc2OC)c2ccc(C#N)cc21", "Ki(h-V1a)/Ki(h-V1b)", "+++ (>75)"]
]}

Please examine the following record next.
q: Please report the recorded Ki(h-V1a)/Ki(h-V1b) for COc1ncccc1[C@]1(NC(=O)N2CC(N3CCC(N(C)C4COC4)CC3)C2)C(=O)N(S(=O)(=O)c2ccc(F)cc2F)c2ccc(C#N)cc21 .
a: + (10-<25)
